Data credit: the supplement of paper PMC9694430

# System: LOC_OS01G52050-cb004
# Sequence (as listed by the source): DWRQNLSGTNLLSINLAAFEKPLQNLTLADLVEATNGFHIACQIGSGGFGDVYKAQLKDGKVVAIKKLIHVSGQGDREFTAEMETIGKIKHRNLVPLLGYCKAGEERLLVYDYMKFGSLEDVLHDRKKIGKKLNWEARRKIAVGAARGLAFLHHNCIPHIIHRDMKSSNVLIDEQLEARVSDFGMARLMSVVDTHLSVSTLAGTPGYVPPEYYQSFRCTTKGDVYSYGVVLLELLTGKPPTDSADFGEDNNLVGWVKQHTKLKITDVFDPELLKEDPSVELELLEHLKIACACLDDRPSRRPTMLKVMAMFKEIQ
# experimental_protocol: thermal shift delta Tm vs DMSO control; higher = stronger stabilization (binding);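 further: purified Escherichia coli-expressed rice kinase domain construct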
# experimental_context: 12.5 µM; protein concentration 2 µM
Items are presented alongside their recorded thermal shift delta Tm.
observed_property: thermal shift delta Tm (°C)

1) CS(=O)(=O)N1CCc2c(-c3cnc(N)nc3)nc(N3CCOCC3)nc21 :: 0.32
2) CNS(=O)(=O)Nc1nccc(Cc2c(C)c3ccc(Oc4ncccn4)cc3oc2=O)c1F :: 0.66
3) Nc1nccc(Oc2ccc(NC(=O)c3c[nH]cc(-c4ccc(F)cc4)c3=O)cc2F)c1Cl :: 2.83
4) C=CC(=O)Nc1ccc2ncnc(Nc3cccc(Br)c3)c2c1 :: 0
5) COCCOc1ccc2c(c1)ncn2-c1ccc2cccc(N3CCC(N)CC3)c2n1 :: 10.9
6) C#Cc1cccc(Nc2ncnc3cc(OC)c(OCCCCCCC(=O)NO)cc23)c1 :: 0.41
7) CCc1cnn2c(NCc3ccc[n+]([O-])c3)cc(N3CCCC[C@H]3CCO)nc12 :: 0.32
8) C=CC(=O)Nc1cc(Nc2nccc(-c3cn(C)c4ccccc34)n2)c(OC)cc1N(C)CCN(C)C [Osimertinib (AZD9291)] :: 0.11
9) Cc1c(C(=O)N2CCOc3ccc(-c4ccc(N)nc4)cc3C2)ccc(S(C)(=O)=O)c1F :: 0.52
10) CONC(=O)c1ccccc1Nc1cc(Nc2cc(C)nn2C(C)C)ncc1Cl :: 3.96
11) O=C1CCc2c(Oc3ccc4c(c3)[C@@H]3[C@H](O4)[C@H]3c3nc4cc(C(F)(F)F)ccc4[nH]3)ccnc2N1 [Lifirafenib (BGB-283)] :: 2.71
12) CN1CCN(Cc2ccc(-c3cnc4[nH]cc(-c5ccc6[nH]ccc6c5)c4c3)cc2)CC1 :: 9.93
13) COc1cc2nccc(Oc3ccc(NC(=O)C4(C(=O)Nc5ccc(F)cc5)CC4)cc3)c2cc1OC [Cabozantinib malate (XL184)] :: 0.38
14) O=C(Cc1ccc(-c2ccc(OCCN3CCOCC3)cc2)cn1)NCc1ccccc1 :: -0.13
15) CNC(=O)c1cccc(-c2ccc3c(N4CCOC[C@@H]4C)nc(N4CCOC[C@@H]4C)nc3n2)c1 [Vistusertib (AZD2014)] :: -0.25
16) Cc1cc(C)c(/C=C2\C(=O)Nc3ccccc32)[nH]1 [Semaxanib (SU5416)] :: 1.59
17) c1ccc(-c2[nH]ncc2-c2ccnc3ccccc23)nc1 :: 0.61
18) CCn1c(N)c(C(=O)NC)c(=O)c2ccc(C#CC(C)(O)COC)nc21 (stereo not drawn) :: 0.36

###

# Tested on: LOC_OS05G07850-cb002
# experimental_protocol: thermal shift delta Tm vs DMSO control; higher = stronger stabilization (binding)
# experimental_context: 12.5 µM; protein concentration 2 µM
Structures can show the parent of a compound that is named as a salt.
Items are presented alongside their recorded thermal shift delta Tm.
observed_property: thermal shift delta Tm

1. COc1cc2nccc(Oc3ccc(NC(=O)Nc4cc(C)on4)c(Cl)c3)c2cc1OC [Tivozanib (AV-951)] :: 9.77 °C
2. CC#CC(=O)N1CC[C@@H](n2c(=O)n(-c3ccc(Oc4ccccc4)cc3)c3c(N)ncnc32)C1 [ONO-4059 (GS-4059) hydrochloride] :: -0.32 °C
3. CS(=O)(=O)CCNCc1ccc(-c2ccc3ncnc(Nc4ccc(OCc5cccc(F)c5)c(Cl)c4)c3c2)o1 :: 1.34 °C
4. CCC[C@H](NC(=O)/C(C#N)=C/c1cccc(Br)n1)c1ccccc1 [Degrasyn (WP1130)] :: -0.67 °C
5. CCn1nc(C2CCN(C(=O)CCO)CC2)nc1-c1cnc(N)c(-c2nnc(C(C)(C)C)o2)n1 :: 8.76 °C
6. COc1cc(N2CCC(N(C)C)CC2)ccc1Nc1ncc(Cl)c(Nc2ccccc2P(C)(C)=O)n1 :: 15 °C
7. O=C(NC(NC(=S)Nc1ccc(F)c([N+](=O)[O-])c1)C(Cl)(Cl)Cl)C(c1ccccc1)c1ccccc1 (stereo not given) :: 8.68 °C
8. COc1cc2c(Oc3ccc(NC(=O)C4(C(=O)Nc5ccc(F)cc5)CC4)cc3F)ccnc2cc1OCCCN1CCOCC1 :: 13.9 °C
9. CN1CCC(Nc2nc(Nc3ccc(Oc4ccccc4)cc3)c3c(=O)[nH]cc(Br)c3n2)CC1 :: 7.31 °C
10. C[C@@H]1CN(CC(=O)Nc2ccc3c(c2)Cc2cccc(-c4cc(=O)cc(N5CCOCC5)o4)c2S3)C[C@H](C)O1 :: 0.16 °C
11. FC(F)(F)c1ccc(CNc2ccc(Cc3c[nH]c4ncc(Cl)cc34)cn2)cn1 [Pexidartinib (PLX3397)] :: 8.75 °C
12. N#CC1(c2ccc(NC(=O)c3cccnc3NCc3ccncc3)cc2)CCCC1 [Apatinib] :: 0.8 °C
13. O=c1c(O)c(-c2cc(O)c(O)c(O)c2)oc2cc(O)cc(O)c12 [Myricetin] :: 4.43 °C
14. O=c1cc(N2CCOCC2)oc2c1ccc1ccccc12 :: 0.96 °C
15. c1cn2cc(-c3ccc4cn[nH]c4c3)nc(Nc3ccc(N4CCOCC4)cc3)c2n1 [Entospletinib (GS-9973)] :: 7.87 °C
16. c1ccc(-c2[nH]ncc2-c2ccnc3ccccc23)nc1 :: 3.02 °C
17. O=C(NOCC1CC1)c1ccc(F)c(F)c1Nc1ccc(I)cc1Cl :: 1.54 °C
18. CN(C)C[C@@H]1CCn2cc(c3ccccc32)C2=C(C(=O)NC2=O)c2cn(c3ccccc23)CCO1 :: 5.79 °C
19. CCN(CC)CCCC(C)Nc1nc(C)cc(Nc2ccc3nc(C)cc(N)c3c2)n1 (stereo not given) :: -0.09 °C
20. O=C(Nc1c[nH]nc1-c1nc2ccc(CN3CCOCC3)cc2[nH]1)NC1CC1 :: 14.2 °C
21. COc1cc(Nc2c(C#N)cnc3cc(OCCCN4CCN(C)CC4)c(OC)cc23)c(Cl)cc1Cl [Bosutinib (SKI-606)] :: 0.13 °C
22. Cc1cnc(Nc2ccc(OCCN3CCCC3)cc2)nc1Nc1cccc(S(=O)(=O)NC(C)(C)C)c1 :: 8.73 °C
23. O=C(Nc1cc(C(F)(F)F)cc(C(F)(F)F)c1)c1cc(Cl)ccc1O :: -0.13 °C
24. Cc1ccc(NC(=O)Nc2cc(C(F)(F)F)ccc2F)cc1Nc1ccc2c(c1)NC(=O)/C2=C\c1ccc[nH]1 :: 1.9 °C
25. Cc1ncc(CO)c(CO)c1O [Pyridoxine] :: 0.43 °C
26. O=C1c2ccc(Nc3ccc(F)cc3F)cc2CCc2ccc(OC[C@H](O)CO)cc21 [Skepinone-L] :: 1.02 °C
27. CNc1nc(Nc2cn(C(C)(C)C#N)nc2C)ncc1C(F)(F)F :: 3.12 °C
28. COc1ccc(-c2ccc3c(N4CCOC[C@@H]4C)nc(N4CCOC[C@@H]4C)nc3n2)cc1CO :: 0.42 °C
29. O=c1cc(-c2cccc3c2Sc2ccccc2S3)oc(N2CCOCC2)c1 :: 0.85 °C
30. Cc1c(NC(=O)OC[C@@H]2COCCN2)cn2ncnc(Nc3ccc4c(cnn4Cc4cccc(F)c4)c3)c12 :: 0.64 °C
31. CC(C)Nc1cc(-c2c[nH]c(C(=O)N[C@H](CO)c3cccc(Cl)c3)c2)c(Cl)cn1 :: 2.27 °C
32. CCS(=O)(=O)N1CC(CC#N)(n2cc(-c3ncnc4[nH]ccc34)cn2)C1 :: 4.2 °C
33. CCc1cccc(CC)c1NC(=O)N1Cc2[nH]nc(NC(=O)c3ccc(N4CCN(C)CC4)cc3)c2C1 :: 5.74 °C
34. CCc1nc(C(N)=O)c(Nc2ccc(N3CCC(N4CCN(C)CC4)CC3)c(OC)c2)nc1NC1CCOCC1 [Gilteritinib (ASP2215)] :: 17.4 °C
35. Cn1ncc(Cl)c1-c1cc(C(=O)N[C@H](CN)Cc2ccc(F)c(F)c2)oc1Cl :: 1.08 °C
